Test system: 485368-065-R3-J5-PDC spheroids with HUVEC/MSC, viability;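 note: spheroids exposed to agents for seven days before readout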
method.notes: Anticancer human tumor 485368-065-R3-J5-PDC patient-derived pancreatic carcinoma cell line growth inhibition [RAS]; active = viability on the fitted dose curve at most 10% of control; inactive = the rest
conditions.used: second compound 0.316 µM; first compound 10 µM
The reply should name one outcome from active, inactive

Lab log entry: Cc1nc(N2CCC3(CC2)COC(C)C3N)c(CO)nc1Sc1ccnc(N)c1Cl (stereo unspecified) + C#Cc1c(F)ccc2cc(O)cc(-c3ncc4c(N5CC6CCC(C5)N6)nc(OCC56CCCN5CC(F)C6)nc4c3F)c12 — outcome as called in the assay?
inactive

Any idea what this test logged for CCC(CC)c1cc(NC2CCC(N)C2)n2nccc2n1 (stereo unspecified) + C#Cc1c(F)ccc2cc(O)cc(-c3ncc4c(N5CC6CCC(C5)N6)nc(OCC56CCCN5CC(F)C6)nc4c3F)c12 ?
active

What classification did CC(C)NCC(C(=O)N1CCN(c2ncnc3c2C(C)CC3O)CC1)c1ccc(Cl)cc1 (stereo unspecified) + C#Cc1c(F)ccc2cc(O)cc(-c3ncc4c(N5CC6CCC(C5)N6)nc(OCC56CCCN5CC(F)C6)nc4c3F)c12 end up with in this test?
inactive

So what was the verdict on CC(=O)OC12COC1CC(O)C1(C)C(=O)C(O)C3=C(C)C(OC(=O)C(O)C(NC(=O)OC(C)(C)C)c4ccccc4)CC(O)(C(OC(=O)c4ccccc4)C21)C3(C)C (stereo unspecified) + C=CC(=O)N1CCN(c2nc(OCC3CCCN3C)nc3c(F)c(-c4nc(N)cc(C)c4C(F)(F)F)c(Cl)cc23)C(C)C1 in this test?
inactive

GET /call?item= NC1c2ccccc2OC12CCN(c1cnc3c(N4CCCc5ncccc54)n[nH]c3n1)CC2 (stereo unspecified) + C#Cc1c(F)ccc2cc(O)cc(-c3ncc4c(N5CC6CCC(C5)N6)nc(OCC56CCCN5CC(F)C6)nc4c3F)c12 returns the recorded outcome of this test.
inactive

Returns: the outcome recorded for C[C@@H](NC(=O)c1ncnc(N)c1Cl)c1ncc(C(=O)Nc2cc(C(F)(F)F)c(Cl)cn2)s1 + C=CC(=O)N1CCN(c2nc(OCC3CCCN3C)nc3c(F)c(-c4nc(N)cc(C)c4C(F)(F)F)c(Cl)cc23)C(C)C1 in this assay.
inactive
